System: MCP-1 (monocyte chemoattractant protein 1) expression
PROTOCOL: MCP-1 ELISA (inflammation assay in HAECs)
Format: cell-based
APPLIED CONDITIONS: Endothelial cell; HAEC supernatants; TNFα (0.5 ng/mL) or glycated human serum albumin (300 μg/mL), 18-24 h; read-out: IC50, MCP-1 enzyme-linked immunosorbent assay
OUTCOME MEASURE: IC50 (µM)

Worked cases, IC50 given:
INSERT INTO measurements (molecule, observed) VALUES
  ('CS(=O)(=O)c1ccc(Nc2cc(-n3ccc(C(F)(F)F)n3)c3ccccc3n2)cc1 [E 23]', 9),
  ('FC(F)(F)c1ccn(-c2cc(-c3ccc4c(c3)OCO4)nc3ccccc23)n1 [E 15]', 4.2),
  ('FC(F)(F)Oc1ccc(Nc2cc(-n3ccc(C(F)(F)F)n3)c3ccccc3n2)cc1 [E 19]', 1),
  ('COc1cc(Nc2cc(-c3ccc(F)cc3)nc3ccccc23)ccc1Cl [E 13]', 5);

A = CNS(=O)(=O)c1ccc(Nc2cc(-n3ccc(C(F)(F)F)n3)c3ccccc3n2)cc1 [E 21]
B = COc1ccc(Nc2nc(-c3ccc(F)cc3)cc3ccc(C)cc23)cc1F [E 7]
C = CNC(=O)c1ccc(Nc2cc(-n3ccc(C(F)(F)F)n3)c3ccccc3n2)cc1 [E 22]
D = COc1ccc(Nc2cc(-c3ccc(F)cc3)nc3ccccc23)cc1Cl [E 8]
Returns the items ordered by IC50, from maximum to minimum. Present the labels in the sequence the task asks for.
B, D, C, A
(B: 5 µM, D: 2.1 µM, C: 0.75 µM, A: 0.43 µM)

----------
OUTCOME MEASURE: melting point

Worked cases, melting point given:
INSERT INTO assay_data (molecular_string, outcome_measure, observed) VALUES
  ('FC(F)(F)Oc1ccc(-c2cc(-n3ccc(C(F)(F)F)n3)c3ccccc3n2)cc1', 'melting point', '108 to 110 °C'),
  ('COc1ccc(Nc2nc(-c3ccc(F)cc3)cc3ccc(C)cc23)cc1F', 'melting point', '163 to 165 °C'),
  ('COc1ccc(Nc2cc(-c3ccc(F)cc3)nc3ccccc23)cc1Cl', 'melting point', '260 °C');

Return the recorded melting point value; entry: `CNS(=O)(=O)c1ccc(Nc2cc(-n3ccc(C(F)(F)F)n3)c3ccccc3n2)cc1`
220 to 222 °C

Return the recorded melting point value; entry: `c1ccc(-c2cc(-n3ccc4ccccc43)c3ccccc3n2)cc1`
100 to 102 °C

Return the recorded melting point value; entry: `CSc1ccc(-c2cc(-n3ccc(C(F)(F)F)n3)c3ccccc3n2)cc1`
116 to 118 °C

Return the recorded melting point value; entry: `COc1ccc(Nc2cc(-c3ccccc3)nc3ccccc23)cc1Cl`
272 to 274 °C

Return the recorded melting point value; entry: `COc1ccc(Nc2cc(-c3ccncc3)nc3ccccc23)cc1Cl`
280 to 282 °C

Return the recorded melting point value; entry: `CS(=O)(=O)c1ccc(Nc2cc(-n3ccc(C(F)(F)F)n3)c3ccccc3n2)cc1`
194 to 196 °C

Return the recorded melting point value; entry: `FC(F)(F)Oc1ccc(Nc2cc(-n3ccc(C(F)(F)F)n3)c3ccccc3n2)cc1`
128 to 130 °C

----------
System: IL-6 (interleukin-6) expression
PROTOCOL: IL-6 ELISA (inflammation assay in HAECs)
Assay type: cell-based
APPLIED CONDITIONS: endothelial cell media; TNFα (0.5 ng/mL) or glycated human serum albumin (300 μg/mL), 18-24 h; read-out: IC50, IL-6 enzyme-linked immunosorbent assay
OUTCOME MEASURE: IC50 (µM)
The reply should be a number in µM, with the unit left off.

Return the recorded IC50 value; entry: `COc1ccc(Nc2cc(-c3ccccc3)nc3ccccc23)cc1Cl`
2
